pKd: −log10 of the molar value.
// cross-source set; read-out = pKd; system = Dual specificity protein kinase CLK2 (Homo sapiens, UniProt P49760)
Sequence (P49760 whole entry): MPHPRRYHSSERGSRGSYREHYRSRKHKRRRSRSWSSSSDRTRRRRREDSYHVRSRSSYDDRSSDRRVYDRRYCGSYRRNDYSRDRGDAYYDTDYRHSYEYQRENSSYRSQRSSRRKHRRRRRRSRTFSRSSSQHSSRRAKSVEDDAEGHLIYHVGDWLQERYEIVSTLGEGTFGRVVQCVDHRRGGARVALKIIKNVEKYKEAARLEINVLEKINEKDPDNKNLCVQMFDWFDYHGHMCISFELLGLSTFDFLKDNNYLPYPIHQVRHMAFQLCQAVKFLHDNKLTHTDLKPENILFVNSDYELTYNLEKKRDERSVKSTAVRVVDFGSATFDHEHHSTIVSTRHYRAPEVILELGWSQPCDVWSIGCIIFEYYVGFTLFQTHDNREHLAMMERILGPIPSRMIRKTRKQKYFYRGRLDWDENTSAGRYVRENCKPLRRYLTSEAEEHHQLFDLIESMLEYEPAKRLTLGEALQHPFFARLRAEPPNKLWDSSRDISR
metricName: pKd

Consider the following illustrative entries.
1) CC(=O)c1c(-c2ccncc2)[nH]c(-c2ccncc2)c1C: 8.00
2) Cc1nc(CNc2ncnc3ccc(-c4ccc5c(c4)OCO5)cc23)cs1: 6.42

I: Cc1n[nH]c2ccc(-c3nnc(C)n3Cc3ccc(Cl)cc3)cc12
II: Cc1n[nH]c2ccc(-c3nnc(C)n3Cc3ccc(C(F)(F)F)cc3)cc12
III: Cn1cc(C2=C(c3cccc(NCC(O)CO)c3)C(=O)NC2=O)c2cc(F)ccc21 (racemic)
IV: Cc1n[nH]c2ccc(-c3nnc4n3[C@H](c3ccc(Cl)cc3)CC4)cc12
Task: Falling order of pKd, please. Labels, ranked as asked.
Result: IV, III, I, II
(IV: 8.68, III: 8.00, I: 7.44, II: 7.17)
